- Test system: A. baumannii J2
- PROCEDURE_TEXT: MIC without and with sub-inhibitory polymyxin B (Example 4)
- Type: cell-based, Acinetobacter baumannii
- ASSAY_CONTEXT: Acinetobacter baumannii, J2, read-out: MIC +[…] PB, A. baumannii J2; +[…] polymyxin B; 1st experiment
RECORDED_METRIC: MIC (µg/mL)

# COMPOUND, BOUND_SIGN, READOUT_NUMBER
measured = [
    ("Cc1c(-c2ccc(CN)cc2)ccn2c(=O)c(C(=O)O)cc(C3CC3)c12", "=", 0.5),
    ("Cc1c(-c2ccc(CN)cc2)c(F)cn2c(=O)c(C(=O)O)cc(C3CC3)c12", "=", 1),
    ("Cc1c(-c2cc(F)c(N)cc2F)ccn2c(=O)c(C(=O)O)cc(C3CC3)c12", "≤", 0.03),
    ("C[C@H]1COc2c(N3CCN(C)CC3)c(F)cc3c(=O)c(C(=O)O)cn1c23 [Levofloxacin, reference compound]", "=", 8),
    ("NCC[C@H](O)C(=O)N[C@@H]1C[C@H](N)[C@@H](O[C@H]2O[C@H](CN)[C@@H](O)[C@H](O)[C@H]2O)[C@H](O)[C@H]1O[C@H]1O[C@H](CO)[C@@H](O)[C@H](N)[C@H]1O [Amikacin, reference compound]", "=", 4),
    ("Cc1c(-c2ccc(N)cc2)c(F)cn2c(=O)c(C(=O)O)cc(C3CC3)c12", "≤", 0.03),
    ("Cc1c(-c2cc(Cl)c(N)c(Cl)c2)ccn2c(=O)c(C(=O)O)cc(C3CC3)c12", "=", 0.125),
    ("Cc1c(-c2ccc(CN)c(F)c2)ccn2c(=O)c(C(=O)O)cc(C3CC3)c12", "=", 2),
    ("Cc1c(-c2ccc(N)c(F)c2)ccn2c(=O)c(C(=O)O)cc(C3CC3)c12", "≤", 0.03),
    ("COc1c(N2C[C@@H]3CCCN[C@@H]3C2)c(F)cc2c(=O)c(C(=O)O)cn(C3CC3)c12", "=", 8),
    ("Cc1c(-c2ccc(N)c(F)c2)c(F)cn2c(=O)c(C(=O)O)cc(C3CC3)c12", "=", 0.06),
]

* * *

Reported MIC values follow for various compounds
- System: A. baumannii A472
- PROCEDURE_TEXT: MIC without and with sub-inhibitory polymyxin B (Example 4)
- Type: cell-based, Acinetobacter baumannii
- ASSAY_CONTEXT: Acinetobacter baumannii, A472, A. baumannii A472; +[…] PB; 2nd experiment; read-out: MIC
RECORDED_METRIC: MIC

# COMPOUND, RESULT
measured = [
    ("Cc1c(-c2ccc(CN)c(F)c2)ccn2c(=O)c(C(=O)O)cc(C3CC3)c12 [Compound 4]", "0.125 µg/mL"),
    ("Cc1c(-c2ccc(N)cc2)c(F)cn2c(=O)c(C(=O)O)cc(C3CC3)c12 [Compound 7]", "≤ 0.03 µg/mL"),
    ("COc1c(N2C[C@@H]3CCCN[C@@H]3C2)c(F)cc2c(=O)c(C(=O)O)cn(C3CC3)c12 [Moxifloxacin]", "4 µg/mL"),
    ("Cc1c(-c2cc(F)c(N)cc2F)ccn2c(=O)c(C(=O)O)cc(C3CC3)c12 [Compound 2]", "≤ 0.03 µg/mL"),
    ("C[C@@H](O)[C@H]1C(=O)N2C(C(=O)O)=C(S[C@@H]3CN[C@H](C(=O)N(C)C)C3)[C@H](C)[C@H]12 [Meropenem]", "≤ 0.125 µg/mL"),
    ("Cc1c(-c2cc(Cl)c(N)c(Cl)c2)ccn2c(=O)c(C(=O)O)cc(C3CC3)c12 [Compound 3]", "≤ 0.03 µg/mL"),
]

* * *

- Test system: GN56 Acinetobacter baumannii levofloxacin resistant clinical isolate
- PROCEDURE_TEXT: Chequerboard synergy with polymyxin B, FICI (Example 6)
- Format: cell-based
RECORDED_METRIC: FICy

# COMPOUND, RECORDED_METRIC, READOUT_NUMBER
rows = [
    ("Cc1c(-c2ccc3[nH]ncc3c2)ccn2c(=O)c(C(=O)O)cc(C3CC3)c12", "FICy", 0.50),
    ("C[C@H]1COc2c(N3CCN(C)CC3)c(F)cc3c(=O)c(C(=O)O)cn1c23 [Levofloxacin, reference compound]", "FICy", 1.00),
    ("Cc1c(-c2ccc(N)nc2)ccn2c(=O)c(C(=O)O)cc(C3CC3)c12", "FICy", 0.24),
    ("Cc1c(-c2cc(F)c(N)cc2F)ccn2c(=O)c(C(=O)O)cc(C3CC3)c12", "FICy", 0.50),
]

* * *

Reported log10 MIC values follow for various compounds
- Test system: Acinetobacter sp. (H064200250)
- PROCEDURE_TEXT: MIC without and with sub-inhibitory polymyxin B (Example 4)
- Type: cell-based
- ASSAY_CONTEXT: Acinetobacter, read-out: MIC +[…] PB, Acinetobacter spp. H064200250; +[…] polymyxin B; 1st experiment
RECORDED_METRIC: log10 MIC (log10 of the value in µg/mL)

# COMPOUND, log10 MIC
data = [
    ("Cc1c(-c2ccc(CN)cc2)c(F)cn2c(=O)c(C(=O)O)cc(C3CC3)c12", 0.60),
    ("Cc1c(-c2ccc(CN)cc2)ccn2c(=O)c(C(=O)O)cc(C3CC3)c12", 0.00),
    ("Cc1c(-c2cc(Cl)c(N)c(Cl)c2)ccn2c(=O)c(C(=O)O)cc(C3CC3)c12", -0.30),
    ("Cc1c(-c2ccc(N)cc2)ccn2c(=O)c(C(=O)O)cc(C3CC3)c12", -1.22),
    ("C[C@@H](O)[C@H]1C(=O)N2C(C(=O)O)=C(S[C@@H]3CN[C@H](C(=O)N(C)C)C3)[C@H](C)[C@H]12", 0.00),
    ("Cc1c(-c2ccc(N)c(F)c2)c(F)cn2c(=O)c(C(=O)O)cc(C3CC3)c12", -1.22),
    ("Cc1c(-c2ccc(CN)c(F)c2)ccn2c(=O)c(C(=O)O)cc(C3CC3)c12", 0.60),
    ("Cc1c(-c2ccc(N)cc2)c(F)cn2c(=O)c(C(=O)O)cc(C3CC3)c12", -0.60),
]

* * *

- Tested on: A. baumannii A489
- PROCEDURE_TEXT: MIC without and with sub-inhibitory polymyxin B (Example 4)
- Assay type: cell-based, Acinetobacter baumannii
- ASSAY_CONTEXT: Acinetobacter baumannii, A489, read-out: MIC +[…] PB, A. baumannii A489; +[…] polymyxin B; 1st experiment
Reported MIC values follow for various compounds

# COMPOUND, RESULT_UNIT, BOUND_SIGN, MIC
measured = [
    ("Cc1c(-c2ccc(N)c(F)c2)c(F)cn2c(=O)c(C(=O)O)cc(C3CC3)c12", "µg/mL", "≤", 0.03),
    ("Cc1c(-c2cc(F)c(N)cc2F)ccn2c(=O)c(C(=O)O)cc(C3CC3)c12", "µg/mL", "≤", 0.03),
    ("NCC[C@H](O)C(=O)N[C@@H]1C[C@H](N)[C@@H](O[C@H]2O[C@H](CN)[C@@H](O)[C@H](O)[C@H]2O)[C@H](O)[C@H]1O[C@H]1O[C@H](CO)[C@@H](O)[C@H](N)[C@H]1O [Amikacin, reference compound]", "µg/mL", "=", 128),
    ("Cc1c(-c2cc(Cl)c(N)c(Cl)c2)ccn2c(=O)c(C(=O)O)cc(C3CC3)c12", "µg/mL", "=", 0.06),
    ("Cc1c(-c2ccc(CN)cc2)c(F)cn2c(=O)c(C(=O)O)cc(C3CC3)c12", "µg/mL", "=", 0.5),
    ("Cc1c(-c2ccc(CN)c(F)c2)ccn2c(=O)c(C(=O)O)cc(C3CC3)c12", "µg/mL", "=", 1),
    ("COc1c(N2C[C@@H]3CCCN[C@@H]3C2)c(F)cc2c(=O)c(C(=O)O)cn(C3CC3)c12", "µg/mL", "=", 4),
    ("Cc1c(-c2ccc(N)cc2)ccn2c(=O)c(C(=O)O)cc(C3CC3)c12", "µg/mL", "≤", 0.03),
    ("C[C@H]1COc2c(N3CCN(C)CC3)c(F)cc3c(=O)c(C(=O)O)cn1c23 [Levofloxacin, reference compound]", "µg/mL", "=", 8),
    ("C[C@@H](O)[C@H]1C(=O)N2C(C(=O)O)=C(S[C@@H]3CN[C@H](C(=O)N(C)C)C3)[C@H](C)[C@H]12", "µg/mL", "=", 0.5),
    ("Cc1c(-c2ccc(CN)cc2)ccn2c(=O)c(C(=O)O)cc(C3CC3)c12", "µg/mL", "=", 0.5),
    ("Cc1c(-c2ccc(N)c(F)c2)ccn2c(=O)c(C(=O)O)cc(C3CC3)c12", "µg/mL", "≤", 0.03),
    ("Cc1c(-c2ccc(N)cc2)c(F)cn2c(=O)c(C(=O)O)cc(C3CC3)c12", "µg/mL", "≤", 0.03),
]
